Data origin: patent US8791132B2

- SUBJECT OF TEST: human recombinant adrenergic α2B receptor (Homo sapiens, UniProt P18089)
- Construct: expressed in transfected cells; host or cells: CHO-K1
- Sequence (P18089 whole entry): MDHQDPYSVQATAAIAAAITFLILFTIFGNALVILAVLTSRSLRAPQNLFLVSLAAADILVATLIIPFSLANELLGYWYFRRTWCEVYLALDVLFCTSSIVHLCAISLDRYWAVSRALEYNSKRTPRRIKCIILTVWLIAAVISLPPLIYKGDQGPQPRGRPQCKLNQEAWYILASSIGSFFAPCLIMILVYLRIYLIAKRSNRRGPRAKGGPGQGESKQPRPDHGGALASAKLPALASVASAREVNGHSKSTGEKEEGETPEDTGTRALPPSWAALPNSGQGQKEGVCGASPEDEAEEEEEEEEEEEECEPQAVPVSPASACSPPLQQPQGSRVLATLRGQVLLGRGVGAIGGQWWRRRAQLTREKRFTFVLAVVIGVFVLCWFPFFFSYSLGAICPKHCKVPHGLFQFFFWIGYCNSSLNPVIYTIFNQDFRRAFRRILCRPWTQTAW
- EXPERIMENT NOTES: Radioligand binding, adrenergic α2B ([3H]Rauwolscine)
- REPORTED CONDITIONS: 0.03 μM compound; read-out: Percentage inhibition of ligand binding, Adrenergic α2B
Kind request: treat 50% as inclusive, so inhibition at 0.03 µM at 50% or higher is rule met, anything lower is rule not met.

Prompt: Given CC(O)(Cn1c2c(c3cc(Cl)ccc31)CNCC2)c1ccncc1 (stereo not shown) [II-62] , state whether its inhibition at 0.03 µM is at least 50%.
Completion: rule not met

Prompt: Now this one: Cc1ccc2c(c1)c1c(n2CC(NC2CCC2)c2ccncc2)CCN(C)C1 (stereo not shown) [II-13]
Completion: rule met

Prompt: Now this one: Cc1ccc2c(c1)c1c(n2CC(C)(OC(=O)C(C)(C)C)c2cccnc2)CCN(C)C1 (stereo not shown) [II-16a]
Completion: rule not met

Prompt: Now this one: Cc1ccc2c(c1)c1c(n2CC(C)(c2cnccn2)N(C)C)CCN2CCCC12 (single isomer, unassigned) [II-6a]
Completion: rule met

Prompt: Now this one: CN1CCc2c(n(CC(O)c3cccnc3)c3ccc(Cl)cc23)C1 (stereo not shown) [II-87]
Completion: rule not met

Prompt: Now this one: CC(=O)OC(C)(Cn1c2c(c3cc(C)ccc31)CN(C)CC2)c1cccnc1 (single isomer, unassigned) [II-15a]
Completion: rule not met

Prompt: Now this one: CCNC(Cn1c2c(c3cc(C)ccc31)CN(C)CC2)c1ccncc1 (stereo not shown) [II-8]
Completion: rule met

Prompt: Now this one: Cc1ccc2c(c1)c1c(n2CC(O)c2ccc(O)c(O)c2)CCN(C)C1 (stereo not shown) [II-88]
Completion: rule not met

Prompt: Now this one: Cc1ccc2c(c1)c1c(n2CC(O)c2ccncc2)CN2CCC1C2 (stereo not shown) [II-69]
Completion: rule not met

Prompt: Now this one: Cc1ccc2c(c1)c1c(n2C2=C(c3ccc(C)nc3)CCC2)CCN(C)C1 [II-82]
Completion: rule not met

Prompt: Now this one: C=CCN1CCc2c(c3cc(C)ccc3n2CC(O)c2ccncc2)C1 (stereo not shown) [II-63]
Completion: rule met

Prompt: Now this one: Cc1ccc2c(c1)c1c(n2CC(C)(OC(=O)c2ccncc2)c2cccnc2)CCN(C)C1 (stereo not shown) [II-19]
Completion: rule not met

Prompt: Now this one: OC(Cn1c2c(c3cc(Cl)cnc31)CN1CCCC1C2)c1ccncc1 (stereo not shown) [II-86]
Completion: rule not met

Prompt: Now this one: Cc1cnc2c(c1)c1c(n2CCc2ccc(F)cc2)CCN2CCCC12 (stereo not shown) [compound 336]
Completion: rule met

Prompt: Now this one: Cc1ccc2c(c1)c1c(n2CC(c2cnccn2)N(C)C)CCN2CCCC12 (stereo not shown) [II-7]
Completion: rule met

Prompt: Now this one: Cc1ccc2c(c1)c1c(n2CC(O)c2ccncc2)CCN(CCCO)C1 (stereo not shown) [II-75]
Completion: rule not met

Prompt: Now this one: OC(Cn1c2c(c3cccnc31)C1CCCN1CC2)c1ccncc1 (stereo not shown) [II-79]
Completion: rule met

Prompt: Now this one: OC(Cn1c2c(c3ccccc31)C1CCC(C2)N1)c1ccncc1 (stereo not shown) [II-85]
Completion: rule not met

---

- SUBJECT OF TEST: human recombinant adrenergic α2B receptor (Homo sapiens, UniProt P18089)
- Construct: expressed in transfected cells; host or cells: CHO-K1
- EXPERIMENT NOTES: Radioligand binding, adrenergic α2B ([3H]Rauwolscine)
- REPORTED CONDITIONS: read-out: Percentage inhibition of ligand binding, Adrenergic α2B (0.1 μM), compound at 0.1 μM; [3H]Rauwolscine; repeat datapoints each shown
TEST READOUT: inhibition at 0.1 µM (%)
Hi! Could you send only the number? It should be in %, unit omitted.

Prompt: Name the reported inhibition at 0.1 µM value associated with the compound "C/C(=C\n1c2c(c3cc(C)ccc31)CCN(C)CC2)c1ccc(Cl)c(Cl)c1"
Completion: 98

Prompt: Now this one: "CN1CCc2c(c3cc(Cl)ccc3n2CCC2CCCCC2)C1"
Completion: 64

Prompt: Now this one: "C/C(=C\n1c2c(c3cc(C)cc(C)c31)CN(C)CC2)c1ccc(C)nc1"
Completion: 105

Prompt: Now this one: "C/C(=C\n1c2c(c3cc(C)ccc31)CN(C)CC2)c1cnc(N(C)C)nc1"
Completion: 84

Prompt: Now this one: "C/C(=C\n1c2c(c3cc(Cl)ccc31)CCN(C)CC2)c1ccc(Cl)cc1Cl"
Completion: 90

Prompt: Now this one: "Cc1ccc2c(c1)c1c(n2C2=C(c3ccc(C)s3)CCC2)CCN(C)C1"
Completion: 84

Prompt: Now this one: Cc1ccc2c(c1)c1c(n2CC(C)(O)c2cccnc2)CNCC1 (single isomer, unassigned) [128a]
Completion: 104

Prompt: Now this one: "CC(=O)Nc1ccc(/C(C)=C/n2c3c(c4cc(C)ccc42)CN(C)CC3)cn1"
Completion: 79

---

- SUBJECT OF TEST: human recombinant adrenergic α2A receptor (Homo sapiens, UniProt P08913)
- Construct: expressed in transfected cells; host or cells: insect Sf9 cells
- Sequence (P08913 1-465): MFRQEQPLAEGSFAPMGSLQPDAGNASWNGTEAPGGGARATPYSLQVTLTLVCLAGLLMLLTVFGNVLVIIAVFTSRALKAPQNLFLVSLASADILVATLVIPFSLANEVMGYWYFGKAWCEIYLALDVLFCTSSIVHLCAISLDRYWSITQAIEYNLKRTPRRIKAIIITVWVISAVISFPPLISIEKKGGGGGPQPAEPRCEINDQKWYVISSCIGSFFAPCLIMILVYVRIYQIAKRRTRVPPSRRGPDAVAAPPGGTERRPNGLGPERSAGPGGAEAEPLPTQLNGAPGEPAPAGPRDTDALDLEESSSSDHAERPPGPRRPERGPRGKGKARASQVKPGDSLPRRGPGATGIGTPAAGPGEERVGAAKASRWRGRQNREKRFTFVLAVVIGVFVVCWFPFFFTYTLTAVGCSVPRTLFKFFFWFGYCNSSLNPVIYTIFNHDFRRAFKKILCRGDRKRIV
- EXPERIMENT NOTES: Radioligand binding, adrenergic α2A ([3H]MK-912)
- REPORTED CONDITIONS: read-out: Percentage inhibition of ligand binding, Adrenergic α2A (0.1 μM), compound at 0.1 μM; [3H]MK-912; repeat datapoints each shown
Category key, based on recorded inhibition at 0.1 µM: lower band (below 20%), central band (20% to below 80%), upper band (80% or more)

Prompt: Which class holds C/C(=C\n1c2c(c3cc(C)ccc31)C1CCCN1CC2)c1ccc(F)cc1 (single isomer, unassigned) [194b] ?
Completion: upper band

Prompt: Now this one: Cc1ccc2c(c1)c1c(n2CC(C)(O)c2cnccc2C(=O)O)CCN(C)C1 (stereo not shown) [compound 179]
Completion: lower band

Prompt: Now this one: C/C(=C/n1c2c(c3cc(C)ccc31)CCN(C)CC2)c1ccc(Cl)cc1Cl [compound 226]
Completion: upper band

Prompt: Now this one: CN1CCc2c(c3cc(Cl)ccc3n2CC(O)(c2ccc(F)cc2)C2CC2)C1 (stereo not shown) [compound 223]
Completion: central band

Prompt: Now this one: Cc1ccc2c(c1)c1c(n2CC(N=[N+]=[N-])c2ccc(C(N)=O)nc2)CCN(C)C1 (stereo not shown) [V-22]
Completion: lower band

Prompt: Now this one: CN1CCc2c(c3cc(Cl)ccc3n2CCc2ccc(Cl)cc2)C1 [compound 213]
Completion: upper band

Prompt: Now this one: Cc1ccc2c(c1)c1c(n2CC(C(=O)O)c2ccncc2)CCN(C)C1 (stereo not shown) [II-262]
Completion: lower band

Prompt: Now this one: Cc1ccc2c(c1)c1c(n2CC(=O)c2ccc(F)cc2)CCN(C)C1 [compound 94]
Completion: lower band

Prompt: Now this one: C/C(=C\n1c2c(c3cc(Cl)ccc31)C1CCC(C2)N1C)c1cccnc1 (stereo not shown) [compound 97]
Completion: lower band

Prompt: Now this one: C/C(=C\n1c2c(c3cc(C)ccc31)CN(C)CC2)c1ccc(C)nc1 [compound 186]
Completion: central band

Prompt: Now this one: Cc1ccc2c(c1)c1c(n2CCc2ccccc2F)CCN(C)C1 [compound 204]
Completion: upper band

Prompt: Now this one: Cc1ccc2c(c1)c1c(n2C2=C(c3ccncc3)CCC2)CCN(C)C1 [compound 114]
Completion: central band

Prompt: Now this one: Cc1ccc2c(c1)c1c(n2CCc2cncc(Cl)c2)CCN(C)CC1 [compound 92]
Completion: central band

Prompt: Now this one: Cc1ccc2c(c1)c1c(n2CC(O)c2ccncc2)CCN2CCCC12 (stereo not shown) [129a]
Completion: central band

Prompt: Now this one: Cc1ccc(CCn2c3c(c4cc(C(F)(F)F)ccc42)CN(C)CC3)cc1 [compound 210]
Completion: upper band

Prompt: Now this one: C/C(=C/n1c2c(c3cc(C)ccc31)CN(C)CC2)c1cccc(F)c1 [compound 236]
Completion: upper band

Prompt: Now this one: C/C(=C/n1c2c(c3cc(C)ccc31)CCN(C)CC2)c1ccccc1F [compound 230]
Completion: upper band

Prompt: Now this one: Cc1ccc(CCn2c3c(c4c(Cl)ccc(Cl)c42)CCN(C)C3)cn1 [II-249]
Completion: central band

Prompt: Now this one: C/C(=C\n1c2c(c3cc(C)ccc31)CCN(C)C2C)c1ccccc1F (stereo not shown) [compound 96]
Completion: central band

Prompt: Now this one: C/C(=C\n1c2c(c3cc(C)ccc31)CN(C)CC2)c1ccc(CO)nc1 [compound 125]
Completion: lower band

Prompt: Now this one: Cc1ccc(CCn2c3c(c4cc(Cl)ccc42)CN(C)CC3)cc1 [compound 208]
Completion: upper band

Prompt: Now this one: Cc1cnc2c(c1)c1c(n2CC(N)c2ccncc2)CCN(C)C1 (stereo not shown) [compound 156]
Completion: lower band
